study system: human PAR4 (Homo sapiens)
Sequence (Q96RI0 18-385): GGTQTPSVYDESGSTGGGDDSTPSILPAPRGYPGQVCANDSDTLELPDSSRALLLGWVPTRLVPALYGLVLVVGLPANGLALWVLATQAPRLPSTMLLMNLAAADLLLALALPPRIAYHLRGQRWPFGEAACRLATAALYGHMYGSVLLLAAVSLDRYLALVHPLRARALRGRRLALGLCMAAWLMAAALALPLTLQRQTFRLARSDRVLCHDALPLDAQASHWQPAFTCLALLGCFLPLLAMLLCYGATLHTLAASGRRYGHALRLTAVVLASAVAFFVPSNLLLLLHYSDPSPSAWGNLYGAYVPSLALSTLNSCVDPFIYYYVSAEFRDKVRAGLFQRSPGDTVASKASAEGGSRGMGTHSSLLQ
run description: PAR4 FLIPR assay: antagonism of agonist-peptide-induced calcium mobilization in PAR4-expressing HEK293 cells
cond: H-Ala-Phe(4-F)-[…]NH2-induced intracellular calcium mobilization, 11-point curves
Recorded pIC50 for the following compounds
// pIC50: -log10(molar conc.)

compound: COc1cnc2c(-c3nc4cc(F)c(OC[C@@H](C)OC(=O)Nc5ccc6[nH]ccc6c5)cc4s3)cc(C)cc2n1
study system: human PAR4 (Homo sapiens)
pIC50: 7.77

compound: COc1cnc2c(-c3nc4cc(F)c(O[C@@H](C)[C@@H](C)OC(=O)Nc5ccc(C(C)(C)O)nc5)nc4s3)cc(C)cc2n1
study system: human PAR4 (Homo sapiens)
pIC50: 9.10

compound: COc1cnc2c(-c3nc4c(s3)C(O)CCC4)cc(C)cc2n1 (stereo not shown)
study system: human PAR4 (Homo sapiens)
pIC50: 7.48

Turning to the following compound.
Entry COc1cc(C(O)C(C)(C)C)c2nc(-c3cc(Cl)cc4nc(OC)cnc34)sc2c1 (stereo not shown) : reported pIC50 = ?
8.52
